# experimentalSystem: UniProt P34972
# Sequence (P34972 whole entry): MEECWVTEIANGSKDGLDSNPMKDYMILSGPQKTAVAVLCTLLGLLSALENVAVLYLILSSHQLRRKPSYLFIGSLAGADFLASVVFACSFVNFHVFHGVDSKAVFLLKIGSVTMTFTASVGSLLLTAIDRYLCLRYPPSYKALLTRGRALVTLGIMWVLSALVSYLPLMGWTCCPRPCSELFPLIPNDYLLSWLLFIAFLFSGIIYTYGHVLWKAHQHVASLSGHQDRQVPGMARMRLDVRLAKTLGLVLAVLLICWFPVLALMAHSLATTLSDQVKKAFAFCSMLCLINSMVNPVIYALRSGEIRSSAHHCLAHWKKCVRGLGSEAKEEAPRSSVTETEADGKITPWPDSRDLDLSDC
# assayExplanation: cell-based
# Design: host or cells: cAMP Hunter cell lines
# protocolConditions: PathHunter agonist mode; read-out: CB2 Activity (β-Arrestin)
# Excerpt: The PathHunter® β-Arrestin assay monitors the activation of a GPCR in a homogenous, non-imaging assay format using a technology developed by DiscoverX called Enzyme Fragment Complementation (EFC) with β-galactosidase (3-Gal) as the functional reporter. […] PathHunter cell lines were expanded from freezer stocks according to standard procedures. […] Microplates were read following signal generation with a PerkinElmer Envision™ instrument for chemiluminescent signal detection. […]
Would you mind telling me the reported pEC50 of each entry?
Formally, pEC50 is defined as -log10 of the concentration c, with c in mol/L.

response.value for CCCCCCC(C)(C)c1cc(O)c2c(c1)OC(C)(C)[C@@H]1CC=C(C(=O)NCCCO)C[C@@H]21 (field: pEC50) = 6.09

response.value for CCCCCCC(C)(C)c1cc(O)c2c(c1)OC(C)(C)[C@@H]1CC=C(C(=O)NC3CCC3)C[C@@H]21 (field: pEC50) = 8.80

response.value for CCCCC(C)(C)c1cc(O)c2c(c1)OC(C)(C)[C@@H]1CC=C(C(=O)O)C[C@@H]21 (field: pEC50) = 7.24

response.value for CCCCCCC(C)(C)c1cc(O)c2c(c1)OC(C)(C)[C@@H]1CC=C(C(=O)NC(C)(C)C)C[C@@H]21 (field: pEC50) = 8.89

response.value for CCCCCCC(C)(C)c1cc(O)c2c(c1)OC(C)(C)[C@@H]1CC=C(C(=O)NO)C[C@@H]21 (field: pEC50) = 8.43

response.value for CCCCCCC(C)(C)c1cc(O)c2c(c1)OC(C)(C)[C@@H]1CC=C(C(=O)NC3CC(F)(F)C3)C[C@@H]21 (field: pEC50) = 8.72

response.value for CCCCCCC(C)(C)c1cc(O)c2c(c1)OC(C)(C)[C@@H]1CC=C(C#N)C[C@@H]21 (field: pEC50) = 8.85

response.value for CCCCCCC(C)(C)c1cc(O)c2c(c1)OC(C)(C)[C@@H]1CC=C(C(=O)NC3(C(F)(F)F)CCC3)C[C@@H]21 (field: pEC50) = 8.52

response.value for CCCCCCC(C)(C)c1cc(O)c2c(c1)OC(C)(C)[C@@H]1CC=C(C(=O)NC[C@H](O)CO)C[C@@H]21 (field: pEC50) = 8.16

response.value for CCCCCCC(C)(C)c1cc(O)c2c(c1)OC(C)(C)[C@@H]1CC=C(C(=O)N[C@H](C)CCO)C[C@@H]21 (field: pEC50) = 8.10

response.value for CCCCCCC(C)(C)c1cc(O)c2c(c1)OC(C)(C)[C@@H]1CC=C(C(=O)NOC)C[C@@H]21 (field: pEC50) = 8.54

Values were extracted from patent US20210284621A1.
